System: KM20L2 colon
Assay: NCI tumour cell line growth inhibition, 48 h
TGI listing for selected compounds.

compound	TGI
COC(=O)C1=C(c2ccc(OC)c(OC)c2)OC(c2ccc(OC)c(OC)c2)C1 (stereo not drawn)	> 100 µM
CC1CC(C2=CC=CCS2)=Nc2ccccc2S1 (stereo not drawn)	> 100 µM
CN1N=CSC12C(=O)N(c1ccc(Cl)cc1)C(=O)N2c1ccc(Cl)cc1 (stereo not drawn)	> 100 µM

###

Tested on: M14 melanoma
Assay: NCI tumour cell line growth inhibition, 48 h
TGI listing for selected compounds.

compound	TGI
CC1CC(C2=CC=CCS2)=Nc2ccccc2S1 (stereo not drawn)	> 100 µM
O=C(NC1CCN(Cc2ccccc2)CC1)c1cc(-c2ccncc2)nc2ccc(Cl)cc12	34.9 µM
O=C(Nc1ccccc1-c1n[nH]c(=S)[nH]c1=O)C(F)(F)F	> 100 µM

###

Tested on: PC-3 prostate
Assay: NCI tumour cell line growth inhibition, 48 h
TGI listing for selected compounds.

compound	TGI
COC(=O)CCc1cc(OC)c(O)c(C(Cc2ccc(OC)c(OC)c2)C(=O)OC)c1 (stereo not drawn)	> 100 µM
COc1cc2c(cc1OC)-c1cc3ccccc3c[n+]1CC2	> 100 µM
CCOC(=O)CN1C(=O)c2c(c(C)n(-c3ccccc3)c2C)C1=O	> 100 µM

###

System: OVCAR-5 ovarian
Assay: NCI tumour cell line growth inhibition, 48 h
measurement_kind: TGI

compound	measurement_kind	assay_value
COC(=O)[C@@]12C(=O)C=CC(=O)[C@@H]1C1C(=CC2COC(C)=O)O[C@@H]2OC3(CCCCC3)O[C@H]12 (stereo partly drawn)	TGI	30.7 µM
CCC1=NC(N/N=C/c2ccco2)=N/C1=C\c1ccccc1O	TGI	> 100 µM
CC1(C)[C@H](C(=O)O)N2C(=O)[C@@H](NS(=O)(=O)c3ccc([N+](=O)[O-])cc3)[C@H]2S1(=O)=O	TGI	> 100 µM

###

Tested on: UACC-257 melanoma
Assay: NCI tumour cell line growth inhibition, 48 h
GI50 listing for selected compounds.
measurement_kind: GI50

given_smiles	assay_value
N=C(N)c1ccc(OCc2cccc(COc3ccc(C(=N)N)cc3)c2)cc1	14.4 µM
O=C(Nc1cccc(-n2ccc3c(NC(=O)c4ccccc4)nccc32)c1)c1ccc(N2CCOCC2)c(C(F)(F)F)c1	2.36 µM
Cc1nc(-c2cccc(Nc3nc(-c4ccc(Cl)cc4)cs3)c2)cs1	8.76 µM
Nc1ccc2c(c1)C(=O)C(=O)c1c-2nc2ccccn12	1.08 µM

###

System: PC-3 prostate
Assay: NCI tumour cell line growth inhibition, 48 h

compound	study_system	TGI
O=c1sc2c(s1)SSSSS2	PC-3 prostate	> 50 µM
CC1(C)CC(=O)C(CCC(=O)/C=C/c2ccccc2)C(=O)C1	PC-3 prostate	> 100 µM
NC(=O)c1nnc2ccc(F)cc2c1N	PC-3 prostate	> 100 µM
N#Cc1c(N2CCCC2)nsc1NCc1ccccc1	PC-3 prostate	> 100 µM
Nc1c(C(=O)c2cccc(CCCN3CCOCC3)c2)cnn1-c1ccc(F)cc1	PC-3 prostate	> 25 µM
Cc1c(NC(=S)NN)c(=O)n(-c2ccccc2)n1C	PC-3 prostate	> 100 µM
CC1(C)[C@H](C(=O)O)N2C(=O)[C@@H](NS(=O)(=O)c3ccc([N+](=O)[O-])cc3)[C@H]2S1(=O)=O	PC-3 prostate	> 100 µM
CCOC(=O)c1cnn2c1ncc1c(=O)n(NC(N)=O)ccc12	PC-3 prostate	> 100 µM
Cc1ccc([N+](=O)[O-])cc1NC(=O)Nc1cccc(F)c1	PC-3 prostate	> 100 µM
CCNC(=O)[C@@H]1CCCN2C(=O)CC[C@H](NC(=O)[C@H](Cc3ccc(OP(=O)(O)O)cc3)NC(C)=O)C(=O)N12	PC-3 prostate	> 25 µM
CC12CCC3C(CCC4Cc5[nH]c6ccccc6c5CC43C)C1CCC2O (configuration not stated)	PC-3 prostate	> 100 µM
Cc1cc(N(CCC#N)CCC#N)ccc1/C(N=Nc1ccc(Cl)cc1)=N\NC(=O)c1cc(Cl)ccc1O	PC-3 prostate	> 100 µM

Each recorded value in this set is attributed to PubChem BioAssay (NCI).
